Measured AC50 (Sodium-dependent serotonin transporter (Homo sapiens, UniProt P31645))
Numbers only, in µM.

Request: Please provide the recorded AC50 for `OCCN1CCN(CC/C=C2/c3ccccc3Sc3ccc(Cl)cc32)CC1` , tested on Sodium-dependent serotonin transporter (Homo sapiens, UniProt P31645). Also: assay procedure not described here.
Sequence (P31645 whole entry): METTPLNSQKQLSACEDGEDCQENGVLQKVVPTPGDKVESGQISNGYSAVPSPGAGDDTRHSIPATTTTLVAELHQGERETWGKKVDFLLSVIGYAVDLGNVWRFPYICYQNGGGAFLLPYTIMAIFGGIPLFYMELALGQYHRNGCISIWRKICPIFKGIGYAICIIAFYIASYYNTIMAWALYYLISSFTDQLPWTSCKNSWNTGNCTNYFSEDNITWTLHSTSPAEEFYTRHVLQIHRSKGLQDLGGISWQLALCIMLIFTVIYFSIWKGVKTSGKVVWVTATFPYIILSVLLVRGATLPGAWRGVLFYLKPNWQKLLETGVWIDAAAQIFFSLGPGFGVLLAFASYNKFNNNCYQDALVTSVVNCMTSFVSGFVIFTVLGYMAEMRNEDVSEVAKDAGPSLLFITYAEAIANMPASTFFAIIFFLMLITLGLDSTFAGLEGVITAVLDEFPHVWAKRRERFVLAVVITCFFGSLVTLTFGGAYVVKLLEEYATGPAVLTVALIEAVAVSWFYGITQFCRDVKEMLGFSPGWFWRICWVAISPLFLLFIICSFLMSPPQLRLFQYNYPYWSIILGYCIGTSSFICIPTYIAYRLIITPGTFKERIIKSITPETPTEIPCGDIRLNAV
Result: 8.4

Request: And then `N=C(N)c1ccc2cc(OC(=O)c3ccc(N=C(N)N)cc3)ccc2c1` , what is it?
Result: 8.2

// next entry
Request: Please provide the recorded AC50 for `CN(C)c1cc(CNCC(C)(C)C)c(O)c2c1C[C@H]1C[C@H]3[C@H](N(C)C)C(O)=C(C(N)=O)C(=O)[C@@]3(O)C(O)=C1C2=O` , tested on Sodium-dependent serotonin transporter (Homo sapiens, UniProt P31645). Also: assay procedure not described here.
Result: 11

* * *

Measured AC50 (Glutamate receptor ionotropic, NMDA 1 (Rattus norvegicus))

Return reported AC50 values for all items listed beneath this line.
1. COc1ccc(C(CN(C)C)C2(O)CCCCC2)cc1 (stereo not given) [VENLAFAXINE]
2. CN1CCN(CCCN2c3ccccc3Sc3ccc(S(=O)(=O)N(C)C)cc32)CC1 [THIOPROPERAZINE]

Result:
> 10 µM
> 10 µM

* * *

Experimental target: UniProt P08172
Sequence (P08172 whole entry): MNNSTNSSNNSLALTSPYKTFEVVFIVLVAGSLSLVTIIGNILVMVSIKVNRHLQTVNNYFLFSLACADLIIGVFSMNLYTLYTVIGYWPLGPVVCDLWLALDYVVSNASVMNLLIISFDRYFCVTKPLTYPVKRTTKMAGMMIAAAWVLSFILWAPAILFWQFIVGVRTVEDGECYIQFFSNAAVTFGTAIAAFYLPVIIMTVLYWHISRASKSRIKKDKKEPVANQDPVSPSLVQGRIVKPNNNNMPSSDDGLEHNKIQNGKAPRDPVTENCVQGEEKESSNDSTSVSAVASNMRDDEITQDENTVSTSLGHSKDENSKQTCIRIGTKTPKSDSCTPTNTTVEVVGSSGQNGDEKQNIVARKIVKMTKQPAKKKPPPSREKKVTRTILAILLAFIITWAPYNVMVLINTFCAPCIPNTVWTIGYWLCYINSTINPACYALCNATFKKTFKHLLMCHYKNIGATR
Assay type: functional, cell-based
Endpoint label: AC50

Request: Record request: AC50 value, item CC(C)CC(N(C)C)C1(c2ccc(Cl)cc2)CCC1 (centres undefined) [SIBUTRAMINE]
Result: > 30 µM

Request: And then `C=C[C@@]1(C)CC(=O)[C@]2(O)[C@@]3(C)[C@@H](O)CCC(C)(C)[C@@H]3[C@H](OC(=O)CCN(C)C)[C@H](OC(C)=O)[C@@]2(C)O1` , what is it?
Result: > 30 µM

Request: And then `CC(=N)N1CC[C@H](SC2=C(C(=O)O)N3C(=O)[C@H]([C@@H](C)O)[C@H]3C2)C1` , what is it?
Result: > 300 µM

// next entry
Request: Record request: AC50 value, item C#C[C@]1(O)CC[C@H]2[C@@H]3CCC4=CC(=O)CCC4=C3C=C[C@@]21CC [GESTRINONE]
Result: > 30 µM

* * *

Measured AC50 (Growth hormone secretagogue receptor type 1 (Homo sapiens))

Look over these answered cases.
Request: Record request: AC50 value, item C[C@]12CC[C@H](O)CC1=CC[C@@H]1[C@@H]2CC[C@]2(C)C(c3cccnc3)=CC[C@@H]12 [ABIRATERONE]
Result: > 30 µM

Request: And then COc1cc(OC)c(C(=O)CCCN2CCCC2)c(OC)c1 [BUFLOMEDIL] , what is it?
Result: > 30 µM

Request: And then Nc1nc2c(c(=O)[nH]1)N(C=O)C(CNc1ccc(C(=O)N[C@@H](CCC(=O)O)C(=O)O)cc1)CN2 (stereo partly drawn) [LEUCOVORIN] , what is it?
Result: > 30 µM

Request: And then N=C(N)c1ccc2cc(OC(=O)c3ccc(N=C(N)N)cc3)ccc2c1 [NAFAMOSTAT] , what is it?
Result: 21 µM

Request: And then Nc1nc(F)nc2c1ncn2[C@@H]1O[C@H](COP(=O)(O)O)[C@@H](O)[C@@H]1O [FLUDARABINE PHOSPHATE] , what is it?
Result: > 30 µM

Return reported AC50 values for all items listed beneath this line.
1. CCCN(CCc1cccs1)[C@H]1CCc2c(O)cccc2C1 [ROTIGOTINE]
2. CC1(C)O[C@@H]2C[C@H]3[C@@H]4C[C@H](F)C5=CC(=O)C=C[C@]5(C)[C@H]4[C@@H](O)C[C@]3(C)[C@]2(C(=O)CO)O1 [FLUNISOLIDE]
3. CC(=O)Oc1ccccc1C(=O)Nc1ncc([N+](=O)[O-])s1 [NITAZOXANIDE]

Result:
1: 29 µM; 2: > 30 µM; 3: 15 µM
